Reference source: ChEMBL document CHEMBL3399915

protocolDetails: Protein binding in rat brain by equilibrium dialysis method
Format: ADME, tissue-based
measurementParameters: read-out: PB (converted)
readoutLabel: fraction unbound

Data point: COc1ccc([C@H](CO)NC(=O)[C@@H](C)c2ccccc2)cc1 ; fraction unbound = 0.23

Data point: CC(C)COc1ccc([C@H](CO)NC(=O)[C@H]2C[C@@H]2c2cccs2)cc1 ; fraction unbound = 0.05

1. CC[C@H](C)COc1ccc([C@H](CO)NC(=O)[C@H]2C[C@@H]2c2cccs2)cc1
2. CC[C@H](C)COc1ccc([C@H](CN)NC(=O)[C@@H](C)c2ccccc2)cc1
Task for the reader: decide whether 1 or 2 has the larger fraction unbound. Answer format: the label of the selected item.
2
(2: 0.09, 1: 0.06)
